Sourced from paper PMC12300679

Test system: RPMI 1788 human healthy donor peripheral blood leukocytes
Assay: MTT cytotoxicity assay, normal RPMI 1788 cells
Format: cell-based
Conditions: tested at 1–200 µM, three independent experiments, read-out: IC50 RPMI 1788 (normal cell line)
assay.metric: IC50

compound="Cl.O=P(c1ccccc1)(c1ccccc1)C1CCCN1S(=O)(=O)CCN1CCCCC1 (stereo not drawn) [Compound 4r]" recorded_result="> 100 µM"

Now for the compound whose IC50 we want.
Name the reported IC50 value associated with the compound Cl.O=P(c1ccccc1)(c1ccccc1)C1CCCN1S(=O)(=O)CCN1CCCC1 (stereo not drawn) [Compound 4q] > 100 µM

---

System: WI38 human fibroblast cell line
Experiment: MTT cytotoxicity assay, normal WI38 cells
Assay type: cell-based
Details: WI-38, tested at 1–200 µM, three independent experiments
Label key: y means IC50 under 90 µM; n means IC50 of 90 µM or more.

molecule="O=C(O)c1cn(C2CC2)c2cc(N3CCN(CCS(=O)(=O)N4CCCC4P(=O)(c4ccccc4)c4ccccc4)CC3)c(F)cc2c1=O (stereo not drawn) [Compound 4z]" answer_label=n
molecule="O=c1[nH]cc(F)c(=O)[nH]1 [5-Fluorouracil, reference compound]" answer_label=y
molecule="O=C(O)CNCCS(=O)(=O)N1CCCC1P(=O)(c1ccccc1)c1ccccc1 (stereo not drawn) [Compound 4v]" answer_label=n
molecule="Cl.O=P(c1ccccc1)(c1ccccc1)C1CCCN1S(=O)(=O)CCN1CCCC1 (stereo not drawn) [Compound 4q]" answer_label=n
molecule="Cc1c(C2CCCN2S(=O)(=O)CCNCC(=O)O)c(=O)n(-c2ccccc2)n1C (stereo not drawn) [Compound 4m]" answer_label=n

Decide: IC50 of Nc1ncnc2c1ncn2CCS(=O)(=O)N1CCCC1P(=O)(c1ccccc1)c1ccccc1 (stereo not drawn) [Compound 4u] strictly below 90 µM? n

Decide: IC50 of O=P(c1ccccc1)(c1ccccc1)C1CCCN1S(=O)(=O)CCNCCS(=O)(=O)O (stereo not drawn) [Compound 4y] strictly below 90 µM? n

Decide: IC50 of CCCCN(CCCC)CCS(=O)(=O)N1CCCC1P(=O)(c1ccccc1)c1ccccc1.Cl (stereo not drawn) [Compound 4p] strictly below 90 µM? y

Decide: IC50 of CCN(CC)CCS(=O)(=O)N1CCCC1P(=O)(c1ccccc1)c1ccccc1.Cl (stereo not drawn) [Compound 4o] strictly below 90 µM? y

Decide: IC50 of Cl.O=P(c1ccccc1)(c1ccccc1)C1CCCN1S(=O)(=O)CCN1CCCCC1 (stereo not drawn) [Compound 4r] strictly below 90 µM? n

Decide: IC50 of O=C(O)c1cn(C2CC2)c2cc(N3CCN(CCS(=O)(=O)N4CCCC4N4C(=O)CCN4c4ccccc4)CC3)c(F)cc2c1=O (stereo not drawn) [Compound 4l] strictly below 90 µM? n

Decide: IC50 of O=C(O)[C@@H](NCCS(=O)(=O)N1CCCC1P(=O)(c1ccccc1)c1ccccc1)c1c[nH]c2ccccc12 (stereo partly drawn) [Compound 4x] strictly below 90 µM? n

Decide: IC50 of Nc1ncnc2c1ncn2CCS(=O)(=O)N1CCCC1N1C(=O)CCN1c1ccccc1 (stereo not drawn) [Compound 4c] strictly below 90 µM? n
